Origin of the recorded values: PubChem BioAssay

Protocol details: blockers of RIG-like receptor reporter activation – cell-based, Sendai virus stimulus, luciferase, 10K MLSCN set, TLR/RLR signaling modifier project, primary screen (AID 602276);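 also: firefly luciferase from ISG56 promoter only with Renilla not read in this screen; 0% = Sendai virus plus DMSO and 100% = medium plus DMSO without virus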
Test conditions: HEK293 RL24 IRF3 luciferase reporter, at 10 µM, hits give high values
Listing of recorded inhibition by entry.
Give your result in % as a bare value.

Field: example entries. Status: answers known.
>>> df
                                   compound  result_type  numeric_result
0  CCN(CC)S(=O)(=O)c1ccc(F)c(C(=O)NCCC(C)C)c1   inhibition           -18.3
1           C1CCc2nnc(-c3nnc4n3CCCCC4)n2CC1   inhibition            11.6
2  CCN(CC)S(=O)(=O)c1ccc(NC(=O)CN(c2cccc(F)c2)S(C)(=O)=O)cc1   inhibition            8.61
3         CSc1ccc(S(=O)(=O)Nc2cccc(F)c2)cc1   inhibition            15.7
4  Nc1c(C(=O)NCCN2CCOCC2)c2nc3ccccc3nc2n1-c1ccc2c(c1)OCO2   inhibition            11.3

// next entry
Query: Specify measured inhibition for CCCOc1ccccc1C1CC(=O)Nc2cc3c(cc21)OCCO3 (stereo unspecified) .
Result: -3.13
